- testTarget: human μ opioid receptor (Homo sapiens)
- Construct: expressed in transfected cells; host or cells: Chinese hamster ovary (CHO) cells
- Sequence (P35372 whole entry): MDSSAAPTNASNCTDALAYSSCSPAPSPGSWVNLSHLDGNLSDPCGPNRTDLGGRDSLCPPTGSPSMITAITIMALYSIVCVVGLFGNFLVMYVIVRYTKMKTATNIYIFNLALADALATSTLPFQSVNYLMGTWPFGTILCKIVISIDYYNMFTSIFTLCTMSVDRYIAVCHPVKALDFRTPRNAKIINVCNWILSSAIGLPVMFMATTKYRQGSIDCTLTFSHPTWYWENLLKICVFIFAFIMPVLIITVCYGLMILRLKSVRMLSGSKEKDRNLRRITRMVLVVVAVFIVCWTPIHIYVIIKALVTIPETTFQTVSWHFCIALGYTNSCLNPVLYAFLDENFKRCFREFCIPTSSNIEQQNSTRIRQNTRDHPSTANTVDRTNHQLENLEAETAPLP
- experimentalProtocol: biochemical
- Format: binding
Measured pKi by item
pKi field: float, defined as -log10 of concentration (mol/L).

As a guide, the following entries are already answered.
| compound | readoutKind | experimentalValue |
| --- | --- | --- |
| CC1C2C(=O)c3ccc(O)cc3[C@@]1(C)CCN2CC1CC1 (mixture of isomers) [(±)-ketocyclazocine, Ketocyclazocine, reference compound] | pKi | 8.77 |
| CC1C2Cc3ccc(CC#N)cc3C1(C)CCN2CC1CC1 (stereo not shown) | pKi | 8.48 |
| N#Cc1ccc2c(c1O)[C@]13CCN(CC4CCC4)[C@H](C2)[C@]1(O)CCC(=O)C3 | pKi | 9.46 |

Note: attention shifts to another entry.
### Prompt Return reported pKi. Input compound: CC1C2Cc3ccc(C=NO)cc3C1(C)CCN2CC1CC1 (stereo not shown)
### Response 7.74
